Species: Rattus norvegicus
Experiment: Maximal % inhibition of adenylyl cyclase activity in rat cortical membranes at a concentration of 10 uM.
Format: functional
For each of the molecules below, state its Max inhibition.
Give bare numbers, in %.

# Entry smiles, Recorded result
records = [
    ("OC[C@H]1O[C@@H](n2cnc3c(NC4CCCCC4)ncnc32)[C@H](O)[C@@H]1O", 16.2),
    ("C[C@@]1(O)[C@H](O)[C@@H](CO)O[C@H]1n1cnc2c(NCc3cccc(I)c3)ncnc21", 10.9),
    ("C[C@@]1(O)[C@H](O)[C@@H](CO)O[C@H]1n1cnc2c(NC3CCCC3)ncnc21", 11),
    ("C[C@H](Cc1ccccc1)Nc1ncnc2c1ncn2[C@@H]1O[C@H](CO)[C@@H](O)[C@@]1(C)O", 13.7),
    ("OC[C@H]1O[C@@H](n2cnc3c(NC4CCCC4)ncnc32)[C@H](O)[C@@H]1O", 15.5),
]

In the following, a different molecule is considered.
Task: Record request: Max inhibition value, item C[C@@]1(O)[C@H](O)[C@@H](CO)O[C@H]1n1cnc2c(NC3CCCC3)nc(Cl)nc21
Output: 15.1

###

Assay read-out Ki; system under study: Adenosine receptor A3 (Rattus norvegicus).
Sequence (P28647 whole entry): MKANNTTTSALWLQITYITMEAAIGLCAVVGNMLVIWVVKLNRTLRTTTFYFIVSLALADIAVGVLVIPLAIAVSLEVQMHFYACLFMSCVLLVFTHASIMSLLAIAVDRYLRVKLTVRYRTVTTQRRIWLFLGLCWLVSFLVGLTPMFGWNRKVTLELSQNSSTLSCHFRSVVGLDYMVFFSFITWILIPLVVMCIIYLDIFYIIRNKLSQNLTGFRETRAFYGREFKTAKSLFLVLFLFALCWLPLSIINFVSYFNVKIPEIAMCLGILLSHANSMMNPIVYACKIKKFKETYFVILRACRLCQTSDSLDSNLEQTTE
Please answer using the number first and the unit second.

// each listed compound needs a value for Ki
1. CCNC(=O)[C@H]1O[C@@H](n2cnc3c(N)ncnc32)[C@](C)(O)[C@@H]1O
2. C[C@@]1(O)[C@H](O)[C@@H](CO)O[C@H]1n1cnc2c(NC3CCCC3)nc(Cl)nc21
3. Nc1nc(Cl)nc2c1ncn2[C@@H]1O[C@H](CO)[C@@H](O)[C@H]1O

Output:
1. 550 nM
2. 5000 nM
3. 3200 nM

// each listed compound needs a value for Ki
1. C[C@@H](Cc1ccccc1)Nc1ncnc2c1ncn2C1O[C@H](CO)[C@@H](O)[C@@]1(C)O (stereo partly specified)
2. C[C@H](Cc1ccccc1)Nc1ncnc2c1ncn2[C@@H]1O[C@H](CO)[C@@H](O)[C@H]1O [(R)-PIA]
3. C[C@@H](Cc1ccccc1)Nc1ncnc2c1ncn2[C@@H]1O[C@H](CO)[C@@H](O)[C@H]1O [(S)-PIA]

Output:
["10000 nM", "53 nM", "241 nM"]

###

Organism: Rattus norvegicus
Test: Inhibitory activity against Adenylyl cyclase in rat cortical membranes in the presence of 2''-Me-CCPA at concentration 30 nM
Assay type: functional
Value kind: IC50 (nM)
Numbers only, in nM.

Task: Record request: IC50 value, item OC[C@H]1O[C@@H](n2cnc3c(NC4CCCCC4)ncnc32)[C@H](O)[C@@H]1O
Output: 1.6

###

Target: Adenosine receptor A1 (Bos taurus, UniProt P28190)
Sequence (P28190 whole entry): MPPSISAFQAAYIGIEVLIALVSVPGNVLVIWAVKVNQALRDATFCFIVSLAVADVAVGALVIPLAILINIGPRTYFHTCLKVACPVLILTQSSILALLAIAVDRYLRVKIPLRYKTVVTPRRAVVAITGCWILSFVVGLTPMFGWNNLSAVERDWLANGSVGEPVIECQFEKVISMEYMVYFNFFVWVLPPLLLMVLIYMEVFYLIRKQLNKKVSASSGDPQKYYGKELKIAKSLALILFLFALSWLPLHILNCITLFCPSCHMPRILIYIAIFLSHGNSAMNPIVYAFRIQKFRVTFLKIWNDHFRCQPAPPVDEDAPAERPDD
pKi: −log10 of the molar value.
Rule: pKi under 8 gives 0 (no), otherwise 1 (yes).

# Compound, Qualitative label
data = [
    ("C[C@@]1(O)[C@H](O)[C@@H](CO)O[C@H]1n1cnc2c(NC3CCCC3)nc(Cl)nc21", "1 (yes)"),
    ("Nc1nc(Cl)nc2c1ncn2[C@@H]1O[C@H](CO)[C@@H](O)[C@H]1O", "0 (no)"),
    ("C[C@@H](Cc1ccccc1)Nc1ncnc2c1ncn2C1O[C@H](CO)[C@@H](O)[C@@]1(C)O (stereo partly specified)", "0 (no)"),
    ("C[C@]1(O)C(n2cnc3c(N)nc(Cl)nc32)O[C@H](CO)[C@H]1O (stereo partly specified)", "0 (no)"),
    ("CNC(=O)[C@H]1OC(n2cnc3c(NCc4cccc(I)c4)ncnc32)[C@](C)(O)[C@@H]1O (stereo partly specified)", "0 (no)"),
]

Task: Hello, I need to know if C[C@@]1(O)[C@H](O)[C@@H](CO)O[C@H]1n1cnc2c(NCc3cccc(I)c3)ncnc21 has measured pKi not below 8. Thanks!
Output: 0 (no)
